Readings of viability at 28.5 h, 10 µM for the listed molecules
Test: in vitro
Settings: human, hela cells, % viability
Express your answer in %, writing the number without its unit.

CCN(CCO)C(=O)c1cccc(-c2cnn(C(F)F)c2C)c1; 95.5
O=c1ccn([C@H]2C[C@@H](O)[C@@H](CO)O2)c(=O)[nH]1; 98.3

Turning now to a further record.
response.value for `Cc1cc(C(=O)N2CCC(c3nnc(CN(C)C)n3C)CC2)ccc1F` (field: viability at 28.5 h, 10 µM) = 95.5

----------
Assay: in vitro
Conditions: human, hela cells, % viability
REPORTED_METRIC: viability at 28.5 h, 10 µM (%)
Express your answer in %, writing the number without its unit.

For orientation, consider the following solved cases.
COc1ccccc1-c1nccnc1NCc1cccs1 [CBK088682]; 88
COc1ccnc(Sc2ccc(Cl)cc2)c1C#N [CBK018571]; 92.2

response.value for COc1ccc(N2C(=O)CSC23C(=O)N(Cc2ccc(Cl)cc2)c2ccccc23)cc1 (stereo not drawn) [CBK092396] (field: viability at 28.5 h, 10 µM) = 91.6

----------
Test: in vitro
Settings: human, hela cells, % viability
REPORTED_METRIC: viability at 28.5 h, 10 µM (%)
Express your answer in %, writing the number without its unit.

O=C(O)c1cccc(NCC(=O)c2ccccc2)c1; 88.8
Cc1cccc(C(=O)Nc2nnc(-c3ccncc3)o2)c1; 91.5

Turning now to a further record.
response.value for `CC(C)Nc1nc(NC(C)C)nc(N(C)C(N)=O)n1` (field: viability at 28.5 h, 10 µM) = 90.2

----------
Readings of viability at 28.5 h, 10 µM for the listed compounds
Test: in vitro
Conditions: human, hela cells, % viability

For orientation, consider the following solved cases.
c1ccc(CCNc2cncc(-c3cc4ccccc4o3)n2)nc1; 96.5%
Cc1ccc(C2(O)CCN(Cc3c(C)nc4sccn34)CC2)cc1; 85.8%
O=C(/C=N/O)Nc1cc(C(F)(F)F)ccc1Cl; 107%
O=C(c1ccc(O)nc1)N1CCN(Cc2cc(=O)n3ccsc3n2)CC1; 86.3%

Turning now to a further record.
response.value for `CC(=O)NCCNC(=O)c1cc(-c2cccc(S(C)(=O)=O)c2)cnc1NCC1CC1` (field: viability at 28.5 h, 10 µM) = 93.9%

----------
Readings of viability at 28.5 h, 10 µM for the listed compounds
Assay: in vitro
Conditions: human, hela cells, % viability
Express your answer in %, writing the number without its unit.

For orientation, consider the following solved cases.
CC(Sc1nncs1)C(=O)N1CCCc2ccccc21 (stereo not drawn); 94.6
O=C(O)CCC(=O)Nc1ccccc1C(=O)N1CCCCCC1; 86.3
O=C(Cc1ccccc1[N+](=O)[O-])NNC(=S)Nc1ccc(F)c(Cl)c1; 101
O=C(CN1C(=O)[C@@H]2CCCN2C(=O)c2ccccc21)N1CCCC1; 104
COCCn1c(-c2ccc(CN3CCCC3)cc2)cc2onc(C)c2c1=O [CBK050385C]; 104
N#CCCCN1CCC(Oc2nccnc2OCc2cccc(C(F)(F)F)c2F)CC1; 100
CCN1CCCN(c2ccnc(OCCN3CCOCC3)n2)CC1; 114
COc1nccnc1-c1ccc(C)c(C)c1; 88.7
COc1ccc(Cn2c(=O)n(C(=O)CCc3cccc(OC)c3)c3ccccc32)cc1; 113
OCCN(CCO)c1cncc(-c2ccc(Cl)cc2)n1; 95.2

response.value for `CCCc1c(C(=O)N2CCN(C)CC2)cnn1-c1cc(Cl)cc(Cl)c1` (field: viability at 28.5 h, 10 µM) = 103

response.value for `CNC(=O)Nc1ccccc1NC(=O)NC` (field: viability at 28.5 h, 10 µM) = 93

response.value for O=C1CC(N2CCN(C3CC(=O)N(Cc4ccccc4)C3=O)CC2)C(=O)N1Cc1ccccc1 (stereo not drawn) (field: viability at 28.5 h, 10 µM) = 122

response.value for Cc1ccccc1C(NC(=O)C1CCN(C(=O)c2ccccc2)CC1)c1ccccn1 (stereo not drawn) (field: viability at 28.5 h, 10 µM) = 94.5

response.value for COc1ccc2c(c1OC)C(=O)N1c3ccccc3COC21 (stereo not drawn) (field: viability at 28.5 h, 10 µM) = 103

response.value for `O=C1CCC(=O)N1CCOc1nccnc1OC1CCN(Cc2ccc(C(F)(F)F)cc2)CC1` (field: viability at 28.5 h, 10 µM) = 96

response.value for `FC(F)(F)c1cccc(-c2nccnc2NCc2ccc3c(c2)OCO3)c1` (field: viability at 28.5 h, 10 µM) = 94.2

response.value for `O=C(O)c1ccc(Sc2ccc(S(=O)(=O)c3ccc(C(=O)O)c(C(=O)O)c3)cc2)cc1` (field: viability at 28.5 h, 10 µM) = 106

----------
Test system: HeLa
Conditions: bulk resorufin, single well, 28.5 h, 10 µM, Bulk resorufin fluorescence
REPORTED_METRIC: % viability (%)
Express your answer in %, writing the number without its unit.

HeLa assay, molecule `C[C@H](Cn1c(=O)oc2ccccc21)NC(=O)c1cccs1` , recorded % viability = 90.7

----------
Readings of viability at 28.5 h, 10 µM for the listed compounds
Experiment: in vitro
Conditions: human, hela cells, % viability
Express your answer in %, writing the number without its unit.

response.value for `O=C(Nc1ccc(-c2noc(COc3ccc(Br)cc3)n2)cc1)c1ccc2c(c1)OCO2` (field: viability at 28.5 h, 10 µM) = 97.2

response.value for Cc1cccc(NC(=O)C(c2ccccc2)N2CCOCC2)c1 (stereo not shown) (field: viability at 28.5 h, 10 µM) = 103

response.value for `Cc1ccc(S(=O)(=O)c2nc(NCCN3CCOCC3)sc2Cl)cc1` (field: viability at 28.5 h, 10 µM) = 79.7

response.value for `Cn1c(=O)n(C)c2cc(CNc3ccc(N4CCOCC4)c(C(=O)O)c3)ccc21` (field: viability at 28.5 h, 10 µM) = 84.7

response.value for CS(=O)(=O)N1CCCCCC1c1cc(-c2ccc(F)cc2)no1 (stereo not shown) (field: viability at 28.5 h, 10 µM) = 91.8

response.value for CC(=O)Nc1ccc(N2CCN(CCO)CC2)cc1OCCCOc1ccccc1 [CBK074317T] (field: viability at 28.5 h, 10 µM) = 110

response.value for `CCOc1ccc(Cc2nnnn2CC(=O)O)cc1` (field: viability at 28.5 h, 10 µM) = 91.2

response.value for Cc1noc(C(C)C)c1C(=O)NC(C)c1cccc(Br)c1 (stereo not shown) (field: viability at 28.5 h, 10 µM) = 92.8

response.value for `COc1ccc(CCNC(=O)Nc2ccccc2[N+](=O)[O-])cc1` (field: viability at 28.5 h, 10 µM) = 96.8

response.value for CC(C)NC(=O)[C@H]1CN2CCC1C[C@@H]2Cn1cc(C2(O)CCCC2)nn1 (stereo partly shown) (field: viability at 28.5 h, 10 µM) = 103

response.value for `O=C(O)c1ccc(Oc2ccc3c(c2)C(=O)N(c2nccs2)C3=O)cc1` (field: viability at 28.5 h, 10 µM) = 101

response.value for `C(=N\Nc1nc2ccccc2[nH]1)/c1cccs1` (field: viability at 28.5 h, 10 µM) = 87.6

response.value for `CC(C)c1nc(CCN(C)C(=O)NCc2cc(-c3ccco3)on2)no1` (field: viability at 28.5 h, 10 µM) = 97.8

response.value for `CN(C)c1ccc(-c2[nH][nH]c(=O)c2CCCN)cc1` (field: viability at 28.5 h, 10 µM) = 105

response.value for `Cc1ccc(NC(=O)CSc2cc(-n3nc(C)cc3C)ncn2)cc1` (field: viability at 28.5 h, 10 µM) = 89

response.value for COc1ccc2c(c1)c(C(NCc1cccc(C(F)(F)F)c1)C(N)=O)nn2Cc1ccccc1 (stereo not shown) (field: viability at 28.5 h, 10 µM) = 100

response.value for `COCCNC(=O)CN(C)c1nc2ccccc2[nH]1` (field: viability at 28.5 h, 10 µM) = 84.6

response.value for `CCn1cc(CN2C[C@@H]3CCCN3C[C@H]2CCSC)c(C)n1` (field: viability at 28.5 h, 10 µM) = 96.3

response.value for `O=C(NC1CCCCC1)c1cc(Br)cnc1NCc1cccnc1` (field: viability at 28.5 h, 10 µM) = 91

response.value for `Cc1ccc(-n2cnnn2)c(S(=O)(=O)N2CCOCC2)c1` (field: viability at 28.5 h, 10 µM) = 102

response.value for `Cc1ccc2cc(CNc3ccc(-c4nc5cc(C)ccc5[nH]4)cc3)c(O)nc2c1` (field: viability at 28.5 h, 10 µM) = 70.8

response.value for `CCOc1ncccc1C(=O)NCc1ccc(NC(N)=O)cc1` (field: viability at 28.5 h, 10 µM) = 111

----------
Test: in vitro
Settings: human, hela cells, % viability
Lab note: cut-off is 90%. Strictly less in viability at 28.5 h, 10 µM is 1. Exactly 90% or more is 0.

C=CCn1ncc(CN2CCC3(O)CCCCC3C2)c1C (stereo not drawn); 0
COCc1cc(=O)n2ncc(-c3ccccc3)c2[nH]1; 1
O=C(Cn1cccc2cc(C3CCCNC3)nc1-2)NC1CCCC1 (stereo not drawn); 0

A record lists O=C(C1=C(O)C(=O)N(Cc2cccnc2)C1c1cccc(Oc2ccccc2)c1)c1ccc(Cl)cc1 (stereo not drawn) . Is its viability at 28.5 h, 10 µM below 90%?
1

A record lists `Cc1cc(CSc2cccc(F)c2)no1` . Is its viability at 28.5 h, 10 µM below 90%?
0

A record lists `CN1CCN(c2nc(-c3ccccc3)cc(-c3ccc(Br)cc3)n2)CC1` . Is its viability at 28.5 h, 10 µM below 90%?
0

A record lists `O=C(O)c1ccc(CNC(=O)c2cnc(-c3ccc(F)cc3)c(-c3ccc(O)cc3)c2)cc1` . Is its viability at 28.5 h, 10 µM below 90%?
0

A record lists `Cn1nc(CC(=O)Nc2ccc(OC(=O)c3ccccc3)cc2)c2ccccc2c1=O` . Is its viability at 28.5 h, 10 µM below 90%?
0

A record lists Cc1cccn2c(CN3CCCC(O)C3)c(C(=O)N3CCCCC3)nc12 (stereo not drawn) . Is its viability at 28.5 h, 10 µM below 90%?
0

A record lists `O=C(O)c1ccc(S(=O)(=O)c2ccc(Oc3ccc4c(c3)C(=O)N(c3cccc(C(=O)O)c3)C4=O)cc2)cc1` . Is its viability at 28.5 h, 10 µM below 90%?
0

A record lists O=C(O)CN1C(=O)C(=O)/C(=C(O)\C=C\c2ccccc2)C1c1ccccc1 (stereo not drawn) . Is its viability at 28.5 h, 10 µM below 90%?
1
